# targetUnderTest: T1, Recombinant MBP-mutCALR Type 1 fusion protein (human)
# T1 construct: custom made at Cepter; also called recombinant mutCALR protein
# protocolNotes: SPR, IgG captured, 1:1 fit, Exp. 1
Parameter class (string): assigned from measured koff. Ranges: bottom range: < 0.003 s⁻¹; center range: ≥ 0.003 s⁻¹ and < 0.008 s⁻¹; top range: ≥ 0.008 s⁻¹

>>> classname("anti-mutCALR antibody clone 12 (antibody, human IgG1, lambda, V domains shown, human IgG1) VH: EVQLVQSGAEVKKPGASVKVSCKVSGYTLTELSMQWVRQAPGKGLEWMGGFDPDGGETMYAEKFQGRLTVTEDTSTDTVYMELRSLTSEDTALYFCATSPGYDFFDYWGQGTLVTVSS VL: SYVLTQPPSVSVAPGQTARVSCGGNNIGSKSVNWYRQKPGQAPVLVIYDDSDRPSGIPERFSGSNSGNTATLTINRVEAGDEADYYCQVWDSSNDLLIFGGGTKLTVLG")
"bottom range"
>>> classname("anti-mutCALR antibody clone 19 (antibody, human IgG1, lambda, V domains shown, human IgG1) VH: EVQLVQSGAEVKKPGASVKVSCKVSGYTLTELSMQWVRQAPGKGLEWMGGFDPDDGETMYAEKFQGRLTVTEDTPTDTVYMELRSLTSEDTALYFCATSPGYDFFDYWGQGTLVTVSS VL: SYVLTQPLSVSVALGQTARITCGGSNIGDIRVHWYQQKPGQAPVLVVYDDSDRPSGIPERFSGSNSGNTATLTINRVEAGDEADYYCQVWDSSNDLLIFGGGTKLTVLG")
"top range"
>>> classname("anti-mutCALR antibody clone 38 (antibody, human IgG1, kappa, V domains shown, human IgG1) VH: EVQPVQSGAEVKKPGSSVKVSCKASGGTFSSYAISWVRQAPGQGLEWMGLVDPEDGETIYAEKFRGRVTITADTSTDTAYMELSSLRSEDTAVYYCATEESYGPWGQGTLVTVSS VL: DIQLTQSPSSLSASVGDRVTITCQASQDISNYLNWYQQKPGKAPKLLIYDASNLETGVPSRFSGSGSGTEFTLTISSLQPEDFATYYCQQLNSYPLTFGGGTKLEIKR")
"bottom range"
>>> classname("anti-mutCALR antibody clone 3 (antibody, human IgG1, lambda, V domains shown, human IgG1) VH: EVQLVQSGAEVKKPGASVKVSCKVSGYTLTELSMQWVRQAPGKGLEWMGGFDPDDGETMYAERFQGRLTVTEDTSTDTVYMELRSLTSEDTALYFCATSPGYDFFDYWGQGTLVTVSS VL: SYVLTQPPSVSVAPGQTARITCGGNNIGSKSVHWYQQKPGQAPVLVVYDDSDRPSGIPERFSGSNSGNTATLTINRVEAGDEADYYCQVWDSSNDLLIFGGGTKLTVLG")
"center range"
>>> classname("anti-mutCALR antibody clone 1 (antibody, human IgG1, lambda, V domains shown, human IgG1) VH: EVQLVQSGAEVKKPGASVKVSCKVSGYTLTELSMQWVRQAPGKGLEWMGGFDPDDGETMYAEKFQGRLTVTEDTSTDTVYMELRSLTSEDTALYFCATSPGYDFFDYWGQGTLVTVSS VL: SYVLTQPPSVSVAPGKTARITCGGNYIGSKSVHWYQQKPGQAPVLVVYDDGDRPSGIPARFSGSNSGNTATLTISRVEAGDEADYYCQVWDSISDHVVFGGGTKLTVLG")
"top range"
>>> classname("anti-mutCALR antibody clone 37 (antibody, human IgG1, lambda, V domains shown, human IgG1) VH: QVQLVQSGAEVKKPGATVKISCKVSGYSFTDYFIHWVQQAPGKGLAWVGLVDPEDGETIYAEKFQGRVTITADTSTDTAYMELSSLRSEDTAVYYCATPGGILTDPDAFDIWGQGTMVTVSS VL: QSALTQPASVSGSPGQSITISCTGTSSDVGGYNYVSWYQQHPGKAPKLMIYDVSNRPSGVSNRFSGSKSGNTASLTISGLQAEDEADYYCSSYTSSSTFYVFGTGTKVTVLG")
"bottom range"
>>> classname("anti-mutCALR antibody clone 24 (antibody, human IgG1, lambda, V domains shown, human IgG1) VH: EVQLVQSGAEVKKPGASVKVSCKVSGYTLTELSMQWVRQAPGKGLEWMGGFDPDDGETMYAEKLQGRLTVTEDTSTDTVYMELRSLTSEDTALYFCATSPGYDFFDYWGQGTLVTVSS VL: SYVLTQPPSVSVAPGKTARITCGGNNIGSKSVHWYQQKPGQAPVLVVYDDSDRPSGIPERFSGSNSGNTATLTINRVEAGDEADYYCQVWDSSNDLLIFGGGTKLTVLG")
"bottom range"
>>> classname("anti-mutCALR antibody clone 7 (antibody, human IgG1, lambda, V domains shown, human IgG1) VH: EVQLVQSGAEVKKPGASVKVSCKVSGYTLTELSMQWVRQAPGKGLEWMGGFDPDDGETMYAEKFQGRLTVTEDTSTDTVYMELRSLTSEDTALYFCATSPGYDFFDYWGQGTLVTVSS VL: SYVLTQPPSVSVAPGQTASITCVGTNFGSKNVHWYQQRPGQAPVLVVYDDSDRPSGIPERFSGSNSGNTATLTINRVEAGDEADYYCQVWDSSNDLLIFGGGTKLTVLG")
"center range"
